# System: E. coli BW25113 soxSp lux reporter
# PROTOCOL_DESCRIPTION: promoter activity interaction Z-score (Lux/OD deviation from empty-vector control); higher = stronger promoter induction by the compound
# MEASUREMENT_CONDITIONS: 3.7 µg/ml; genetic background: ΔmarA
Give promoter activity interaction Z-score for every item shown.

// solved cases for promoter activity interaction Z-score follow
COMPOUND	ASSAY_SYSTEM	ASSAY_VALUE
CC1(C)S[C@@H]2[C@H](NC(=O)Cc3ccccc3)C(=O)N2[C@H]1C(=O)O [Penicillin G]	E. coli BW25113 soxSp lux reporter	0.0156
CCCCCCCCCCCCC[N+](C)(C)Cc1ccccc1 [Benzalkonium]	E. coli BW25113 soxSp lux reporter	0.517

For each of the compounds below, state promoter activity interaction Z-score.
1. CC[C@H]1OC(=O)[C@H](C)[C@@H](O[C@H]2C[C@@](C)(OC)[C@@H](O)[C@H](C)O2)[C@H](C)[C@@H](O[C@@H]2O[C@H](C)C[C@H](N(C)C)[C@H]2O)[C@](C)(OC)C[C@@H](C)C(=O)[C@H](C)[C@@H](O)[C@]1(C)O [Clarithromycin]
2. CC[C@H]1OC(=O)[C@H](C)[C@@H](O[C@H]2C[C@@](C)(OC)[C@@H](O)[C@H](C)O2)[C@H](C)[C@@H](O[C@@H]2O[C@H](C)C[C@H](N(C)C)[C@H]2O)[C@](C)(O)C[C@@H](C)C(=O)[C@H](C)[C@@H](O)[C@]1(C)O [Erythromycin]

Completion:
[0.637, -0.0482]

###

Give promoter activity interaction Z-score for every item shown.
# System: E. coli BW25113 micFp lux reporter
# PROTOCOL_DESCRIPTION: promoter activity interaction Z-score (Lux/OD deviation from empty-vector control); higher = stronger promoter induction by the compound
# MEASUREMENT_CONDITIONS: 0.011 µg/ml; genetic background: ΔmarA
Give bare numbers.

// solved cases for promoter activity interaction Z-score follow
COMPOUND	ASSAY_VALUE
C[C@@H]1O[C@@H]1P(=O)(O)O [Fosfomycin]	0.053
C[C@@H](O)[C@H]1C(=O)N2C(C(=O)O)=C(S[C@@H]3CN[C@H](C(=O)N(C)C)C3)[C@H](C)[C@H]12 [Meropenem]	0.0252

For each of the compounds below, state promoter activity interaction Z-score.
1. C[C@H]1[C@H](NC(=O)/C(=N\OC(C)(C)C(=O)O)c2csc(N)n2)C(=O)N1S(=O)(=O)O [Aztreonam]
2. COc1c(N2C[C@@H]3CCCN[C@@H]3C2)c(F)cc2c(=O)c(C(=O)O)cn(C3CC3)c12 [Moxifloxacin]

Completion:
1. 0.045
2. 0.154

###

# System: E. coli BW25113 ompFp lux reporter
# PROTOCOL_DESCRIPTION: promoter activity interaction Z-score (Lux/OD deviation from empty-vector control); higher = stronger promoter induction by the compound
# MEASUREMENT_CONDITIONS: 0.25 µg/ml; genetic background: ΔmarA
PROPERTY_NAME: promoter activity interaction Z-score

// solved cases for promoter activity interaction Z-score follow
GIVEN_SMILES	ASSAY_SYSTEM	promoter activity interaction Z-score
N=C(NCCCCCCNC(=N)NC(=N)Nc1ccc(Cl)cc1)NC(=N)Nc1ccc(Cl)cc1	E. coli BW25113 ompFp lux reporter	0.161
C/C(=C\C(=O)OCCCCCCCCC(=O)O)C[C@@H]1OC[C@H](C[C@@H]2O[C@H]2[C@@H](C)[C@H](C)O)[C@@H](O)[C@H]1O	E. coli BW25113 ompFp lux reporter	0.122
CO[C@@]12[C@H](COC(N)=O)C3=C(C(=O)C(C)=C(N)C3=O)N1C[C@@H]1N[C@@H]12	E. coli BW25113 ompFp lux reporter	-0.0015

Prompt: Identify the measured promoter activity interaction Z-score of CN(C)c1ccc(O)c2c1C[C@H]1C[C@H]3[C@H](N(C)C)C(O)=C(C(N)=O)C(=O)[C@@]3(O)C(O)=C1C2=O for E. coli BW25113 ompFp lux reporter.
Completion: -0.386

###

Give promoter activity interaction Z-score for every item shown.
# System: E. coli BW25113 tolCp lux reporter
# PROTOCOL_DESCRIPTION: promoter activity interaction Z-score (Lux/OD deviation from empty-vector control); higher = stronger promoter induction by the compound
# MEASUREMENT_CONDITIONS: 1 µg/ml; genetic background: ΔmarA
Give bare numbers.

// solved cases for promoter activity interaction Z-score follow
COMPOUND	ASSAY_VALUE
CO[C@H]1/C=C/O[C@@]2(C)Oc3c(C)c(O)c4c(O)c(c(/C=N/N5CCN(C)CC5)c(O)c4c3C2=O)NC(=O)/C(C)=C\C=C\[C@H](C)[C@H](O)[C@@H](C)[C@@H](O)[C@@H](C)[C@H](OC(C)=O)[C@@H]1C	-0.931
O=C(N[C@H](CO)[C@H](O)c1ccc([N+](=O)[O-])cc1)C(Cl)Cl	-0.256

For each of the compounds below, state promoter activity interaction Z-score.
1. NC1CONC1=O (centres undefined)
2. CC1(C)S[C@@H]2[C@H](NC(=O)[C@H](N)c3ccc(O)cc3)C(=O)N2[C@H]1C(=O)O

Completion:
1. 1.18
2. -0.404

###

Give promoter activity interaction Z-score for every item shown.
# System: E. coli BW25113 acrABp lux reporter
# PROTOCOL_DESCRIPTION: promoter activity interaction Z-score (Lux/OD deviation from empty-vector control); higher = stronger promoter induction by the compound
# MEASUREMENT_CONDITIONS: 0.13 µg/ml; genetic background: Δrob
Give bare numbers.

// solved cases for promoter activity interaction Z-score follow
MOLECULE	ASSAY_VALUE
CO[C@@]12[C@H](COC(N)=O)C3=C(C(=O)C(C)=C(N)C3=O)N1C[C@@H]1N[C@@H]12 [Mitomycin C]	0.0466
C[C@H]1c2cccc(O)c2C(=O)C2=C(O)[C@]3(O)C(=O)C(C(N)=O)=C(O)[C@@H](N(C)C)[C@@H]3[C@@H](O)[C@@H]21 [Doxycycline]	2.17
CNC(C)C1CCC(N)C(OC2C(N)CC(N)C(OC3OCC(C)(O)C(NC)C3O)C2O)O1 (centres undefined) [Gentamicin]	0.126

We now examine a further molecule.
Prompt: Could you tell me which promoter activity interaction Z-score is on file for CCN1CCN(C(=O)N[C@@H](C(=O)N[C@@H]2C(=O)N3[C@@H]2SC(C)(C)[C@@H]3C(=O)O)c2ccccc2)C(=O)C1=O [Piperacillin] ?
Completion: 0.0632

###

# System: E. coli BW25113 ompFp lux reporter
# PROTOCOL_DESCRIPTION: promoter activity interaction Z-score (Lux/OD deviation from empty-vector control); higher = stronger promoter induction by the compound
# MEASUREMENT_CONDITIONS: 0.13 µg/ml; genetic background: Δrob
PROPERTY_NAME: promoter activity interaction Z-score

// solved cases for promoter activity interaction Z-score follow
COMPOUND	ASSAY_SYSTEM	promoter activity interaction Z-score
CCN1CCN(C(=O)N[C@@H](C(=O)N[C@@H]2C(=O)N3[C@@H]2SC(C)(C)[C@@H]3C(=O)O)c2ccccc2)C(=O)C1=O [Piperacillin]	E. coli BW25113 ompFp lux reporter	-0.035
CNC(C)C1CCC(N)C(OC2C(N)CC(N)C(OC3OCC(C)(O)C(NC)C3O)C2O)O1 (stereo not given) [Gentamicin]	E. coli BW25113 ompFp lux reporter	0.285
CO[C@@]12[C@H](COC(N)=O)C3=C(C(=O)C(C)=C(N)C3=O)N1C[C@@H]1N[C@@H]12 [Mitomycin C]	E. coli BW25113 ompFp lux reporter	0.963

For each of the compounds below, state promoter activity interaction Z-score.
1. C[C@H]1c2cccc(O)c2C(=O)C2=C(O)[C@]3(O)C(=O)C(C(N)=O)=C(O)[C@@H](N(C)C)[C@@H]3[C@@H](O)[C@@H]21 [Doxycycline]
2. N=C(NCCCCCCNC(=N)NC(=N)Nc1ccc(Cl)cc1)NC(=N)Nc1ccc(Cl)cc1 [Chlorhexidine]

Completion:
[2.05, 0.299]

###

# Test system: E. coli BW25113 soxSp lux reporter
# PROTOCOL_DESCRIPTION: promoter activity interaction Z-score (Lux/OD deviation from empty-vector control); higher = stronger promoter induction by the compound
# MEASUREMENT_CONDITIONS: 0.25 µg/ml; genetic background: Δrob
Give promoter activity interaction Z-score for every item shown.
Numbers only.

GIVEN_SMILES	ASSAY_VALUE
CN(C)c1ccc(O)c2c1C[C@H]1C[C@H]3[C@H](N(C)C)C(O)=C(C(N)=O)C(=O)[C@@]3(O)C(O)=C1C2=O	0.0791
CO[C@@]12[C@H](COC(N)=O)C3=C(C(=O)C(C)=C(N)C3=O)N1C[C@@H]1N[C@@H]12	0.12
N=C(NCCCCCCNC(=N)NC(=N)Nc1ccc(Cl)cc1)NC(=N)Nc1ccc(Cl)cc1	0.236

We now examine a further molecule.
Prompt: Could you tell me which promoter activity interaction Z-score is on file for CC1(C)S[C@@H]2[C@H](NC(=O)[C@H](N)c3ccc(O)cc3)C(=O)N2[C@H]1C(=O)O ?
Completion: 0.236
